The values you see were collected from patent US20090012085A1.

Assay: Phase I dose-escalating study, plasma pharmacokinetics in patients with solid tumor
Type: in vivo, human
Settings: human, plasma, 50 mg, 50 mg QD 4/1 (n = 5), nominal time 4 h; read-out: Mean plasma concentration following the last dose on cycle 1 day 28
Experimental: Cmax values, or maximum total plasma concentrations, of a compound of formula 1 can be measured according to techniques well known to those skilled in the art. For example, after a compound of formula 1 has been administered to a mammal, blood samples can be taken at fixed time points over a period of time (e.g. 24 hours) and the serum or plasma concentration of compound of formula 1 can be measured using standard analytical techniques known in the art. […]
Measured endpoint: concentration at 4 h (ng/mL)
Use ng/mL as the unit, but write only the number.

[in] Requested read-out: concentration at 4 h. Entry: Cc1[nH]c(/C=C2\C(=O)Nc3ccc(F)cc32)c(C)c1C(=O)NC[C@H](O)CN1CCOCC1
[out] 81.1

* * *

test: Phase I dose-escalating study, plasma pharmacokinetics in patients with solid tumor; type: in vivo, human; settings: human, plasma, 100 mg, 100 mg QD (continuous), C1D1 (n = 6), plasma; read-out: C(trough, 24 h), mean (% CV)
Measured endpoint: concentration at 24 h

[in] Requested read-out: concentration at 24 h. Entry: Cc1[nH]c(/C=C2\C(=O)Nc3ccc(F)cc32)c(C)c1C(=O)NC[C@H](O)CN1CCOCC1 [compound 1]
[out] 34.1 ng/mL

* * *

Assay: Phase I dose-escalating study, plasma pharmacokinetics in patients with solid tumor
Type: in vivo, human
Conditions: human, plasma, 100 mg QD, 100 mg QD Continuous (n = 4), nominal time 6 h; read-out: Mean plasma concentration following the last dose on cycle 1 day 28
Procedure: Cmax values, or maximum total plasma concentrations, of a compound of formula 1 can be measured according to techniques well known to those skilled in the art. For example, after a compound of formula 1 has been administered to a mammal, blood samples can be taken at fixed time points over a period of time (e.g. 24 hours) and the serum or plasma concentration of compound of formula 1 can be measured using standard analytical techniques known in the art. […]
Measured endpoint: concentration at 6 h (ng/mL)
Use ng/mL as the unit, but write only the number.

[in] Requested read-out: concentration at 6 h. Entry: Cc1[nH]c(/C=C2\C(=O)Nc3ccc(F)cc32)c(C)c1C(=O)NC[C@H](O)CN1CCOCC1
[out] 707

* * *

test: Phase I dose-escalating study, plasma pharmacokinetics in patients with solid tumor; format: in vivo, human; conditions: human, plasma, 50 mg, 50 mg QD 4/1 (n = 5), nominal time 96 h; read-out: Mean plasma concentration following the last dose on cycle 1 day 28
Measured endpoint: concentration at 96 h (ng/mL)
Use ng/mL as the unit, but write only the number.

[in] Requested read-out: concentration at 96 h. Entry: Cc1[nH]c(/C=C2\C(=O)Nc3ccc(F)cc32)c(C)c1C(=O)NC[C@H](O)CN1CCOCC1
[out] 17

* * *

assay: Phase I dose-escalating study, plasma pharmacokinetics in patients with solid tumor; type: in vivo, human; details: human, plasma, 100 mg, 100 mg QD Continuous (n = 4), nominal time 2 h; read-out: Mean plasma concentration following the last dose on cycle 1 day 28
Measured endpoint: concentration at 2 h (ng/mL)
Use ng/mL as the unit, but write only the number.

[in] Requested read-out: concentration at 2 h. Entry: Cc1[nH]c(/C=C2\C(=O)Nc3ccc(F)cc32)c(C)c1C(=O)NC[C@H](O)CN1CCOCC1 [compound 1]
[out] 524
